Please provide measured IC50 for the entries that follow.
target: HLA-A11 (A*1101) (Homo sapiens, UniProt P04439, A114D/D185E/E176A/F33Y/L180Q/S129P/T187R); assay: biochemical; format: binding
No end group written: not given here.
I only need the number, in nM, no unit after it.

Which measured IC50 value corresponds to KISEYRHYCY [Peptide 78.0082] ?
163

// IC50 lookup, key: KQIVMFLRY [Peptide 88.0330]
97

Name the recorded IC50 for VTVQYDNDKK [Peptide 88.0216] .
100

Request the reported IC50 associated with ISYGRKKRRQK [Peptide 73.0314]
2810

Using the record for SFFSRTWCR [Peptide 1587.42] , report its IC50.
155

Endpoint output: IC50 of QQRSLTEILK [Peptide 9012.0218] . Value?
93

What does the data say about its IC50? Entry: RVHSSHLK [Peptide 1556.72]
13

Param item = VVPALSVSK [Peptide 1589.14] ; retrieve measured IC50.
33

Which IC50 value belongs to KVCLRLLSK [Peptide 78.0302] ?
230

So what does the record say about IC50 for EQMLIQPPK [Peptide 88.0378] ?
79

What value of measured IC50 is listed for AAEGVGAASR [Peptide 9017.0187] ?
478

###

So I've got a bunch of sequences here, and I need their IC50 values.
target: DR4w4 (DRB1*0401) (Homo sapiens, UniProt P01903+P01911, A100K/A169T/F76Y/I96L/K127E/L162R/M171V/N62H/P40V/Q125Y/R42H/S133A/S149N/S66Y/V115G/V209L/W38E); assay: biochemical; type: binding
No end group written: not given here.
Respond numerically; units are nM and should not be typed.

Consider the sequence shown here: GKSYFGMSLISFLQG [Peptide 89.0056] What is its recorded IC50?
1090

Find the recorded IC50 belonging to LSQVKIPKTITVSTG [Peptide 89.0158] and report it.
373

Value lookup for IC50; key = YKTLFVDVTSTYHWT [Peptide 90.0241]
75

What value of IC50 has been recorded for this entry: RHLDKKQRFHNIRGR [Peptide 1543.26]
6200

Form field: reported IC50 of RLTVAKGLSTLLHVP [Peptide 89.0028]
53

Need IC50 of KIGMLDDATVPCWNY [Peptide 90.0040] , thanks.
490

Any idea what its IC50 is? The sequence is LIRMECAIMYTARQM [Peptide 90.0022]
433

For LKLFLKGVPKKNCIL [Peptide 89.0054] , what is its reported IC50?
2910

Entry NCNSNTTPIVHLKGD [Peptide 1601.08] has what IC50?
3110

###

biological target: HLA-A*0201 (HLA-A2.1) (Homo sapiens, UniProt P04439, D140Y/D185E/D98H/E176V/E277Q/G131W/G231S/I119V/I121R/I166T/I218V/L300P/L318F/N151K/N90K/P208A/P217A/Q86G/Q94H/R138H/R169H/T345S); test: biochemical; format: binding
No end group written: not given here.
property.label: pIC50
When answering, recall that pIC50 equals minus log10 of the concentration in mol/L, and write that number alone.

Which measured pIC50 value corresponds to GLYDGMEHV [Peptide 1586.08] ?
6.81

Please report the recorded pIC50 for ILNDTGFYTL [Peptide 9013.0150] .
6.82

// pIC50 lookup, key: KILQQLLFI [Peptide 1525.21]
7.39

Which measured pIC50 value corresponds to RILQQLLFA [Peptide 1525.14] ?
6.91

Need pIC50 of HLQVLFIAKI [Peptide 9013.0244] , thanks.
5.23

Please look up its pIC50: FLKGCIISYV [Peptide 1578.43]
6.47

Fill in the blank: the reported pIC50 of ALFNVQEGV [Peptide 1578.41] is ____.
7.19

Give the measured pIC50 of ALYWYRTGM [Peptide 86.0189] .
5.80

Name the recorded pIC50 for YLWWVNNQSV [Peptide 9013.0197] .
8.05

Consider the sequence LQLSNDNRTLV [Peptide 9013.0307] and give its measured pIC50.
4.89

Please report the recorded pIC50 for GMIDDVTPI [Peptide 1578.24] .
7.60

Would you mind telling me what pIC50 value was observed for RVLQQLLFV [Peptide 1545.05] ?
8.00

Could you share which pIC50 value was measured for GLQQATPGPA [Peptide 9013.0143] ?
5.31

Give its pIC50 value. Item: ALAEAMSQA [Peptide 1539.04]
7.82

###

target: DR7 (DRB1*0701) (Homo sapiens, UniProt P01903+P01911, A100R/A102G/A103Q/D57E/D86V/E43K/F76Y/K127E/L162R/M171V/P40G/Q125H/Q99D/R33Q/R42Y/R54Q/S133A/S66F/T210M/V115G/Y107V/Y59L/Y89S); test: biochemical; assay type: binding
pIC50: −log10 of the molar value. No end group written: not given here.
Mark true (1) for reported pIC50 of 6 or greater; mark false (0) for anything smaller.

Exam item: decide whether the reported pIC50 for GQVIVCPTSISSNQI [Peptide 89.0185] is at least 6.
false (0)

Check if pIC50 >= 6 (inclusive). Item: GNEIFNTSLFEPPPP [Peptide 68.0090]
false (0)

Does the reported pIC50 for IGYYDAQKLLEKMGG [Peptide 68.0103] fall at or above the 6 mark?
false (0)

In plain terms: is recorded pIC50 at least 6 for NMSLLKHQSLRPDED [Peptide 68.0009] ?
false (0)

Tell me whether pIC50 is at least 6 here: DHDITDDSDIAYKYA [Peptide 90.0117]
false (0)

I'd appreciate it if you could say whether HIEFTPTRTDTYACRV [Peptide 530.12] has pIC50 at least equal to 6.
false (0)

State whether the measured pIC50 reaches 6, counting equality as reaching it, for CTLVAGEVDYVGLYY [Peptide 90.0252]
false (0)

Quick check, pIC50 >= 6? NHQVVPALSVSKAKA [Peptide 89.0168]
false (0)

Determine whether measured pIC50 meets or exceeds 6 for YFKLFLQGTPKHNCL [Peptide 89.0133]
false (0)

Check the entry FQVIELQMALETLNA [Peptide 90.0025] : does pIC50 equal or exceed 6?
false (0)

Hi team, for DGVSHAQLPARRAEP [Peptide 1543.18] , is the recorded pIC50 at or above 6?
false (0)

Exam item: decide whether the reported pIC50 for TYGVSFMELVRPFKS [Peptide 89.0095] is at least 6.
false (0)

Quick check, pIC50 >= 6? AKLMSNLLSIPETCM [Peptide 89.0066]
true (1)

Test whether the sequence RLNVCQDKILTHYEN [Peptide 90.0160] records pIC50 of 6 or higher.
false (0)

Item IHFLKGCIISYVNSK [Peptide 89.0147] with pIC50 of 6 or above?
false (0)

Check the entry DRGIIILLLIRFRCS [Peptide 89.0062] : does pIC50 equal or exceed 6?
false (0)

Could you tell me if the measured pIC50 of LSQRLNVCQDKILEH [Peptide 1601.21] reaches 6 or more?
false (0)

Does SADDLRAFQQLFLNT [Peptide 1543.07] have a reported pIC50 of at least 6?
true (1)

API: above_or_equal(metric=pIC50, cutoff=6) for item NTEVETQQMVQQVES [Peptide 89.0059]
false (0)

Record FKKFLKGIPKKSCML [Peptide 89.0073] ; criterion: pIC50 no lower than 6. Met?
false (0)

Decide: pIC50 of GKSYFGMSLISFLQG [Peptide 89.0056] >= 6?
true (1)

For this sequence, is measured pIC50 6 or higher? GQVIVCPASVSSNEV [Peptide 90.0016]
true (1)

hey, is pIC50 for this one >= 6? WQLIRLENAILFTAR [Peptide 90.0211]
true (1)

Does pIC50 meet or surpass 6 for DSEIAYKYAQLADSD [Peptide 89.0051] ?
false (0)

Form field: pIC50 at least 6? Entry: SEIYIIEETTCTLVA [Peptide 90.0250]
false (0)

Is pIC50 at least 6? Consider IIHLKGDANILKCLR [Peptide 90.0197]
false (0)

Does the sequence KNCILIHGAPNTGKS [Peptide 89.0055] have recorded pIC50 that is 6 or more?
false (0)

Does the reported pIC50 for QMMLETLNNTEYKNE [Peptide 1601.22] fall at or above the 6 mark?
false (0)

Hi, just wondering whether GCWRQTSREPRESTV [Peptide 1543.46] shows pIC50 of 6 or higher.
true (1)

Does the reported pIC50 for DWCVAAFGVTGTVAE [Peptide 89.0042] fall at or above the 6 mark?
true (1)
